- ASSAYED TARGET: T1, 006 PSMA Fab
- T1 construct: also called Anti-PSMA Fab
- EXPERIMENT: clonal phage ELISA on biotinylated PSMA Fab captured on neutravidin plates, anti-M13 HRP detection;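 note: crude clonal phage supernatants tested, before phage were added, wells were pretreated with PSMA antigen in blocking buffer or with blocking buffer only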
Where no end group is shown, it is not given here.
Decide using Phage binding ELISA signal, Anti-PSMA Fab: a value greater than or equal to 2 is satisfied, a smaller one is not satisfied.

BINDER | LABEL
WEVRCVPEWMCVGF (cysteine pairing not given here; also: fused to pIII of bacteriophage, linker and pIII sequence not given here, Clonal phage of the Peptide-180 optimization library, tested as crude phage supernatant; not shown: fused to pIII of the bacteriophage) [Phage-2846] | satisfied
HPKLCTPEWMCVIQ (cysteine pairing not given here; also: fused to pIII of bacteriophage, linker and pIII sequence not given here, Clonal phage of the Peptide-180 optimization library, tested as crude phage supernatant; not shown: fused to pIII of the bacteriophage) [Phage-2838] | not satisfied
MLPICKPDWMCAGF (cysteine pairing not given here; also: fused to pIII of bacteriophage, linker and pIII sequence not given here, Clonal phage of the Peptide-180 optimization library, tested as crude phage supernatant; not shown: fused to pIII of the bacteriophage) [Phage-2843] | satisfied
VMTVCKPAWMCTGF (cysteine pairing not given here; also: fused to pIII of bacteriophage, linker and pIII sequence not given here, Clonal phage of the Peptide-180 optimization library, tested as crude phage supernatant; not shown: fused to pIII of the bacteriophage) [Phage-2848] | satisfied
PEVMCRPVWMCLGF (cysteine pairing not given here; also: fused to phage pIII, linker not given here, Clonal phage of the Peptide-180 optimization library, tested as crude phage supernatant; not shown: fused to pIII of the bacteriophage) [Phage-2842] | satisfied
DSHWCMPVWMCMGL (cysteine pairing not given here; also: fused to pIII of bacteriophage, linker and pIII sequence not given here, Clonal phage of the Peptide-180 optimization library, tested as crude phage supernatant; not shown: fused to pIII of the bacteriophage) [Phage-2839] | not satisfied
WDMLCRPAWMCEGF (cysteine pairing not given here; also: fused to pIII of bacteriophage, linker and pIII sequence not given here, Clonal phage of the Peptide-180 optimization library, tested as crude phage supernatant; not shown: fused to pIII of the bacteriophage) [Phage-2845] | satisfied
VAKLCTPAWMCSAM (cysteine pairing not given here; also: fused to pIII of bacteriophage, linker and pIII sequence not given here, Clonal phage of the Peptide-180 optimization library, tested as crude phage supernatant; not shown: fused to pIII of the bacteriophage) [Phage-2835] | not satisfied
